Test system: Escherichia coli TOP10;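 note: peptides expressed intracellularly from a pBAD plasmid library in pooled LB shake-flask culture, induced with 0.3% L-arabinose, DNA abundance read by NGS, three biological replicates, DESeq2 with apeglm shrinkage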
Assay: shrunken log2 fold change of peptide-encoding DNA abundance (4.5 h post-induction vs induction); higher = less antimicrobial activity (less host growth inhibition)
Conditions: time post-induction: 4.5 h; library: site-saturation at positions 5, 18, 19, 20
Would you please tag the item rule met when its shrunken log2 fold change is -0.1 or above, and rule not met when it is below?

sequence_string=RRIRHRPPRLPRPRPRPKQHPRP assigned_category="rule not met"
sequence_string=RRIRCRPPRLPRPRPRPKGQPRP assigned_category="rule met"
sequence_string=RRIRKRPPRLPRPRPRPMKCPRP assigned_category="rule met"
sequence_string=RRIRTRPPRLPRPRPRPWFDPRP assigned_category="rule not met"
sequence_string=RRIRKRPPRLPRPRPRPLPNPRP assigned_category="rule met"
sequence_string=RRIRFRPPRLPRPRPRPTWQPRP assigned_category="rule met"
sequence_string=RRIRDRPPRLPRPRPRPVAQPRP assigned_category="rule met"
sequence_string=RRIRHRPPRLPRPRPRPEGHPRP assigned_category="rule met"
sequence_string=RRIRERPPRLPRPRPRPNMYPRP assigned_category="rule not met"
sequence_string=RRIRARPPRLPRPRPRPYGQPRP assigned_category="rule not met"
sequence_string=RRIRPRPPRLPRPRPRPVYQPRP assigned_category="rule met"
sequence_string=RRIRQRPPRLPRPRPRPDPSPRP assigned_category="rule not met"
sequence_string=RRIRGRPPRLPRPRPRPVELPRP assigned_category="rule met"
sequence_string=RRIRGRPPRLPRPRPRPPKHPRP assigned_category="rule met"
sequence_string=RRIRCRPPRLPRPRPRPQHPPRP assigned_category="rule not met"
sequence_string=RRIRNRPPRLPRPRPRPMFFPRP assigned_category="rule not met"
sequence_string=RRIRNRPPRLPRPRPRPEGAPRP assigned_category="rule met"
sequence_string=RRIRYRPPRLPRPRPRPFYNPRP assigned_category="rule not met"
sequence_string=RRIRDRPPRLPRPRPRPGAFPRP assigned_category="rule met"
sequence_string=RRIRERPPRLPRPRPRPAWSPRP assigned_category="rule met"
sequence_string=RRIRLRPPRLPRPRPRPNNKPRP assigned_category="rule not met"
sequence_string=RRIRPRPPRLPRPRPRPWNDPRP assigned_category="rule met"
sequence_string=RRIRQRPPRLPRPRPRPSMWPRP assigned_category="rule met"
sequence_string=RRIRDRPPRLPRPRPRPIEIPRP assigned_category="rule not met"
sequence_string=RRIRRRPPRLPRPRPRPQERPRP assigned_category="rule met"
sequence_string=RRIRKRPPRLPRPRPRPNKTPRP assigned_category="rule not met"
sequence_string=RRIRSRPPRLPRPRPRPVCNPRP assigned_category="rule met"
sequence_string=RRIRHRPPRLPRPRPRPYTCPRP assigned_category="rule met"
sequence_string=RRIRYRPPRLPRPRPRPQYLPRP assigned_category="rule not met"
sequence_string=RRIRRRPPRLPRPRPRPRGIPRP assigned_category="rule met"
sequence_string=RRIRSRPPRLPRPRPRPCFKPRP assigned_category="rule not met"
sequence_string=RRIRQRPPRLPRPRPRPQIWPRP assigned_category="rule met"
sequence_string=RRIRPRPPRLPRPRPRPFCLPRP assigned_category="rule met"
sequence_string=RRIRDRPPRLPRPRPRPKIQPRP assigned_category="rule met"
sequence_string=RRIRWRPPRLPRPRPRPGEGPRP assigned_category="rule met"
sequence_string=RRIRSRPPRLPRPRPRPTHDPRP assigned_category="rule met"
sequence_string=RRIRTRPPRLPRPRPRPMDFPRP assigned_category="rule met"
sequence_string=RRIRQRPPRLPRPRPRPDLLPRP assigned_category="rule met"
sequence_string=RRIRQRPPRLPRPRPRPTGDPRP assigned_category="rule met"
